B1: TRIM39 (parent)
chain: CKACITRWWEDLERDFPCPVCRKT

variants of: B1; test: protein stability index of a GFP-peptide fusion (GPS, HEK-293T) (PSI 1-6); higher = more stable; conditions: c terminus: a fixed tail appended;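 also: lentivirally expressed fusions sorted by FACS into six bins by GFP to DsRed ratio, PSI derived from sequencing read proportions per bin multiplied by bin number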
protein stability index values, listed per item
Reported property: protein stability index

• CKACITRWWEDLERDFPCPVCGKT [R22G] = 4.6
• CKACITRWWEDLERHFPCPVCRKT [D15H] = 2.72
• CKACITRWGEDLERDFPCPVCRKT [W9G] = 4.55
• CKACITRWWEDLERDHPCPVCRKT [F16H] = 4.1
• CKACITRWWEDLERDFPCPVPRKT [C21P] = 1.11
• CKACITRWWEDLERDSPCPVCRKT [F16S] = 4.27
• CKAHITRWWEDLERDFPCPVCRKT [C4H] = 3.14
• CKACRTRWWEDLERDFPCPVCRKT [I5R] = 3.93
• CKACITRWWEDLERDGPCPVCRKT [F16G] = 4.05
• CKACITRWWEDCERDFPCPVCRKT [L12C] = 3.88
• CKACITRWWEDAERDFPCPVCRKT [L12A] = 4
